system_under_test: Histamine H1 receptor (Cavia porcellus, UniProt P31389)
Sequence (P31389 whole entry): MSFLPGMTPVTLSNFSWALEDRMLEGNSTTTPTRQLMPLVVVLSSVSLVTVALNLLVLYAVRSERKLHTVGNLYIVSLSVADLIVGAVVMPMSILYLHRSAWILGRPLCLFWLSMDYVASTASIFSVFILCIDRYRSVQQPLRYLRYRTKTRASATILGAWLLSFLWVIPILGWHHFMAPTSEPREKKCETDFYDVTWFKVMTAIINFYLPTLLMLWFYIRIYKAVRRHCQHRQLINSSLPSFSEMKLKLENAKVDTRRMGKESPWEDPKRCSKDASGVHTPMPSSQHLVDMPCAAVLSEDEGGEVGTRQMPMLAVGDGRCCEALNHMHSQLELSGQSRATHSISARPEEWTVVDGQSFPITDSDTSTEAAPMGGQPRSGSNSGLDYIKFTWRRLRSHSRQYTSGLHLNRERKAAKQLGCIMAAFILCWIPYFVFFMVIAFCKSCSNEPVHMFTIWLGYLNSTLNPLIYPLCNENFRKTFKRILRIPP
assay_notes: Evaluated for the percent binding affinity against H1 receptor by an H1 histamine-mediated bronchospasm
Set-up: concentration or dose not given beside the values
# if value of inhibition reaches 20%, tag Met; if it stays below, tag Not met

substance_smiles | class
CC(C)(C)c1ccc(S(=O)(=O)NCCCCc2c[nH]cn2)cc1 | Met
O=S(=O)(NCCCCCc1c[nH]cn1)c1ccccc1 | Not met
CC(C)(C)c1ccc(S(=O)(=O)NCCCc2c[nH]cn2)cc1 | Met
O=S(=O)(NCCCCCc1c[nH]cn1)c1ccc(OC(F)(F)F)cc1 | Not met
O=[N+]([O-])c1ccc(S(=O)(=O)NCCCCc2c[nH]cn2)cc1 | Met
O=S(=O)(NCCCCc1c[nH]cn1)c1ccc(F)cc1 | Not met

All figures here come from ChEMBL document CHEMBL1130926.
